Entries and their half-life
- Format: in vivo, C57BL/6J mice
- details: female, C57BL/6J, mouse, brain, po, 200 mg/kg
// return numeric value only (unit: min, not printed)

Example entries begin here.
Which half-life reading was recorded for the molecule CC(=O)CCc1ccc(O)cc1 [RK, 4-(4-hydroxyphenyl)-2-butanone] ?
28.3

Which half-life reading was recorded for the molecule CC(=O)C=Cc1ccc(O)c(O)c1 [DHPhLiAce, 3,4-dihydroxybenzylideneacetone] ?
35.8

Which half-life reading was recorded for the molecule `COc1cc(CCC(C)=O)ccc1O` ?
89.2

Field: next molecule
Which half-life reading was recorded for the molecule OCCc1ccc(O)c(O)c1 [3,4-DHPE, 2-(3,4-dihydroxyphenyl)ethanol] ?
20.3

###

Entries and their log10(Cmax)
- Assay type: in vivo, C57BL/6J mice
- details: Br-F: brain, female LFD mice; single oral RK 200 mg kg^−1; mean±SEM
Base-10 log of Cmax, unit nmol/g.

Example entries begin here.
Which log10(Cmax) reading was recorded for the molecule CC(O)CCc1ccc(O)cc1 (stereo not drawn) ?
1.33

Which log10(Cmax) reading was recorded for the molecule CC(=O)CCc1ccc(O)cc1 [RK, 4-(4-hydroxyphenyl)-2-butanone] ?
1.57

Which log10(Cmax) reading was recorded for the molecule CC(=O)C=Cc1ccc(O)c(O)c1 [DHPhLiAce, 3,4-dihydroxybenzylideneacetone] ?
-0.95

Which log10(Cmax) reading was recorded for the molecule OCCc1ccc(O)cc1 [4-HPE, 2-(4-hydroxyphenyl)ethanol] ?
0.11

Which log10(Cmax) reading was recorded for the molecule OCCc1ccc(O)c(O)c1 [3,4-DHPE, 2-(3,4-dihydroxyphenyl)ethanol] ?
-1.70

Next:
Which log10(Cmax) reading was recorded for the molecule `COc1cc(CCC(C)=O)ccc1O` ?
0.17

###

- Assay type: in vivo, C57BL/6J mice
- details: male, C57BL/6J, mouse, brain, po, 200 mg/kg, T1/2 (elimination half-life), Br-N: brain, normal-weight male mice; single oral RK 200 mg kg^−1
Classify by measured half-life: rule met if it is equal to or exceeds 40 min, rule not met if it is smaller.

Reference set, count: 3
Given OCCc1ccc(O)cc1 [4-HPE, 2-(4-hydroxyphenyl)ethanol] , state whether its half-life is at least 40 min.
rule not met

Given `COc1cc(CCC(C)=O)ccc1O` , state whether its half-life is at least 40 min.
rule met

Given CC(=O)C=Cc1ccc(O)c(O)c1 [DHPhLiAce, 3,4-dihydroxybenzylideneacetone] , state whether its half-life is at least 40 min.
rule not met

Now look at this entry.
Given OCCc1ccc(O)c(O)c1 [3,4-DHPE, 2-(3,4-dihydroxyphenyl)ethanol] , state whether its half-life is at least 40 min.
rule not met

###

- assay notes: Plasma pharmacokinetics after a single oral RK dose, male vs female mice
- Format: in vivo, C57BL/6J mice
- details: male, C57BL/6J, mouse, plasma, po, 200 mg/kg
Entries and their AUC(0-t)
// return numeric value only (unit: µM·h, not printed)

Example entries begin here.
Which AUC(0-t) reading was recorded for the compound COc1cc(CCC(C)=O)ccc1O [VLAce, vanillylacetone] ?
31

Which AUC(0-t) reading was recorded for the compound OCCc1ccc(O)c(O)c1 [3,4-DHPE, 2-(3,4-dihydroxyphenyl)ethanol] ?
0.057

Which AUC(0-t) reading was recorded for the compound CC(=O)CCc1ccc(O)cc1 [RK, 4-(4-hydroxyphenyl)-2-butanone] ?
358

Which AUC(0-t) reading was recorded for the compound CC(=O)C=Cc1ccc(O)c(O)c1 [DHPhLiAce, 3,4-dihydroxybenzylideneacetone] ?
0.465

Which AUC(0-t) reading was recorded for the compound OCCc1ccc(O)cc1 [4-HPE, 2-(4-hydroxyphenyl)ethanol] ?
108

Next:
Which AUC(0-t) reading was recorded for the compound COc1ccc(CCC(C)=O)cc1 [RK-Me, 4-(4-methoxy-phenyl)-2-butanone] ?
0.05

###

- Format: in vivo, C57BL/6J mice
- details: Br-N: brain, normal-weight male mice; single oral RK 200 mg kg^−1
Hi! Just check whether Cmax is below 2 nmol/g. Below gives t, equal or above gives f.

is_below(Cmax, 2 nmol/g) for OCCc1ccc(O)c(O)c1 [3,4-DHPE, 2-(3,4-dihydroxyphenyl)ethanol] ?
t

is_below(Cmax, 2 nmol/g) for CC(=O)CCc1ccc(O)cc1 [RK, 4-(4-hydroxyphenyl)-2-butanone] ?
f

Next:
is_below(Cmax, 2 nmol/g) for CC(O)CCc1ccc(O)cc1 (stereo not drawn) ?
f

is_below(Cmax, 2 nmol/g) for OCCc1ccc(O)cc1 [4-HPE, 2-(4-hydroxyphenyl)ethanol] ?
f

is_below(Cmax, 2 nmol/g) for `COc1cc(CCC(C)=O)ccc1O` ?
f

is_below(Cmax, 2 nmol/g) for CC(=O)C=Cc1ccc(O)c(O)c1 [DHPhLiAce, 3,4-dihydroxybenzylideneacetone] ?
t

###

- assay notes: Plasma pharmacokinetics after a single oral RK dose, normal-weight
- Assay type: in vivo, C57BL/6J mice
- details: male, C57BL/6J, mouse, plasma, po, 200 mg/kg, AUC (0–12 h), Pl-O: plasma, obese male mice; single oral RK 200 mg kg^−1
property measured: AUC(0-t) (µM·h)
// return numeric value only (unit: µM·h, not printed)

Which AUC(0-t) reading was recorded for the molecule CC(=O)C=Cc1ccc(O)c(O)c1 [DHPhLiAce, 3,4-dihydroxybenzylideneacetone] ?
1.38

Which AUC(0-t) reading was recorded for the molecule OCCc1ccc(O)cc1 [4-HPE, 2-(4-hydroxyphenyl)ethanol] ?
28.7

Field: next molecule
Which AUC(0-t) reading was recorded for the molecule `COc1ccc(CCC(C)=O)cc1` ?
0.047

###

- Assay type: in vivo, C57BL/6J mice
- details: male, C57BL/6J, mouse, brain, po, 200 mg/kg, Tmax, Br-N: brain, normal-weight male mice; single oral RK 200 mg kg^−1
Entries and their Tmax

Example entries begin here.
Which Tmax reading was recorded for the compound `COc1cc(CCC(C)=O)ccc1O` ?
40 min

Which Tmax reading was recorded for the compound CC(=O)C=Cc1ccc(O)c(O)c1 [DHPhLiAce, 3,4-dihydroxybenzylideneacetone] ?
30 min

Which Tmax reading was recorded for the compound OCCc1ccc(O)cc1 [4-HPE, 2-(4-hydroxyphenyl)ethanol] ?
25 min

Which Tmax reading was recorded for the compound CC(=O)CCc1ccc(O)cc1 [RK, 4-(4-hydroxyphenyl)-2-butanone] ?
20 min

Next:
Which Tmax reading was recorded for the compound OCCc1ccc(O)c(O)c1 [3,4-DHPE, 2-(3,4-dihydroxyphenyl)ethanol] ?
20 min

###

- assay notes: Plasma pharmacokinetics after a single oral RK dose, male vs female mice
- Assay type: in vivo, C57BL/6J mice
- details: male, C57BL/6J, mouse, plasma, po, 200 mg/kg
Classify by measured Tmax: T if it is equal to or exceeds 20 min, F if it is smaller.

Given CC(=O)C=Cc1ccc(O)c(O)c1 [DHPhLiAce, 3,4-dihydroxybenzylideneacetone] , state whether its Tmax is at least 20 min.
T

Next:
Given `COc1cc(CCC(C)=O)ccc1O` , state whether its Tmax is at least 20 min.
T

Given CC(=O)CCc1ccc(O)cc1 [RK, 4-(4-hydroxyphenyl)-2-butanone] , state whether its Tmax is at least 20 min.
F

Given OCCc1ccc(O)cc1 [4-HPE, 2-(4-hydroxyphenyl)ethanol] , state whether its Tmax is at least 20 min.
T

###

- Type: in vivo, C57BL/6J mice
- details: female, C57BL/6J, mouse, brain, po, 200 mg/kg
property measured: Tmax

Example entries begin here.
Which Tmax reading was recorded for the compound CC(=O)C=Cc1ccc(O)c(O)c1 [DHPhLiAce, 3,4-dihydroxybenzylideneacetone] ?
25 min

Which Tmax reading was recorded for the compound OCCc1ccc(O)cc1 [4-HPE, 2-(4-hydroxyphenyl)ethanol] ?
20 min

Which Tmax reading was recorded for the compound OCCc1ccc(O)c(O)c1 [3,4-DHPE, 2-(3,4-dihydroxyphenyl)ethanol] ?
15 min

Field: next compound
Which Tmax reading was recorded for the compound CC(=O)CCc1ccc(O)cc1 [RK, 4-(4-hydroxyphenyl)-2-butanone] ?
15 min

###

- assay notes: Plasma pharmacokinetics after a single oral RK dose, normal-weight
- Type: in vivo, C57BL/6J mice
- details: male, C57BL/6J, mouse, plasma, po, 200 mg/kg, AUC (0–12 h), Pl-N: plasma, normal-weight male mice; single oral RK 200 mg kg^−1
Entries and their AUC(0-t)
// return numeric value only (unit: µM·h, not printed)

Which AUC(0-t) reading was recorded for the compound CC(=O)CCc1ccc(O)cc1 [RK, 4-(4-hydroxyphenyl)-2-butanone] ?
387

Which AUC(0-t) reading was recorded for the compound `COc1cc(CCC(C)=O)ccc1O` ?
61.2

Which AUC(0-t) reading was recorded for the compound CC(=O)C=Cc1ccc(O)c(O)c1 [DHPhLiAce, 3,4-dihydroxybenzylideneacetone] ?
1.04

Which AUC(0-t) reading was recorded for the compound OCCc1ccc(O)cc1 [4-HPE, 2-(4-hydroxyphenyl)ethanol] ?
20.7

Which AUC(0-t) reading was recorded for the compound `COc1ccc(CCC(C)=O)cc1` ?
0.039

Which AUC(0-t) reading was recorded for the compound OCCc1ccc(O)c(O)c1 [3,4-DHPE, 2-(3,4-dihydroxyphenyl)ethanol] ?
0.08
